Hello, the source for this data is PubChem BioAssay AID1345083, in case you need it.

# protocol_text: Cytotoxic Profiling in HEK 293 Cell Line of Diverse Libraries Using Quantitative High-Throughput Screening; further: nearly all actives have a fitted effect of over 60% in size
# run_parameters: HEK 293 viability, ATP luminescence (CellTiter-Glo), 48-72 h; series mostly up to 115 µM
Out of some 94,000 compounds screened, about 6,200 (6.6%) were called active. Roughly 31% stayed inconclusive and do not appear here. The call rests on the fitted dose curve; in most records, active means well fitted inhibition curve with a large enough effect; inconclusive means small, poorly fitted or top-dose-only effect; inactive means flat fitted curve, though single readings scatter. Only a selection was taken, and actives are over-represented in it overall.
Respond only with the outcome that fits, drawn from True for active, False for inactive

// below: answered molecules
molecule=COc1ccc(-n2nc(C3CCN(Cc4ccccn4)CC3)[nH]c2=O)cc1 group=True
molecule="O=C(C1CCCN(c2ccnc3ccnn23)C1)N1CCCCC1 (centres undefined)" group=False
molecule="COCCNC(=O)C(C)[C@@H]1CC[C@@]2(C)CC[C@H](NC(=O)c3ccccc3)[C@@H](C)[C@@H]2[C@H]1O (some centres undefined)" group=False

In: Please share the test call associated with `COCC(=O)Nc1nc2c(s1)C[C@@H]1[C@](C)(CO)[C@H](O)CC[C@@]1(C)[C@@H]2CC(=O)NCCN1CCOCC1` .
Out: False

In: Check the results log: what was the call for `NC(=O)[C@@H](Cc1ccccc1)NC(=O)[C@@]1(O)C[C@@H](O)[C@H](O)[C@@H](NC(=O)Nc2ccc(OC(F)(F)F)cc2)C1` ?
Out: False

In: Which outcome was assigned to `O=C(CCC[C@@H]1[C@H]2CCCN3CCC[C@@H](CN1C(=O)c1cccnc1)[C@@H]23)NCCCc1ccccc1` in this test?
Out: False

In: Look up the recorded call for `CC(=O)N1CCN(C(=O)C[C@@H]2c3nc(NC(=O)c4cccs4)sc3C[C@@H]3[C@](C)(CO)[C@H](O)CC[C@]32C)CC1` in this test.
Out: False

In: Test call for this molecule, please: `COc1ccc(-n2nc(C3CCN(C(=O)c4ccc(Cl)nc4)CC3)[nH]c2=O)cc1`
Out: False

In: Name the outcome recorded for `O=C(CCc1ccc2c(c1)CNCCO2)NCC1CC1` in the assay.
Out: False
